biological target: vanilloid receptor 1 (VR1/TRPV1 receptor) (Homo sapiens, UniProt Q8NER1); construct: expressed in transfected cells; host or cells: CHO K1; assay: Functional testing on the vanilloid receptor 1 (VR1/TRPV1): FLIPR Ca2+ influx assay, displacement of capsaicin; format: cell-based, human being; details: capsaicin (Cap) as stimulus; Ki from IC50 by Cheng-Prusoff; read-out: (f) Ki (human being) [nM] Cap
Sequence (Q8NER1 whole entry): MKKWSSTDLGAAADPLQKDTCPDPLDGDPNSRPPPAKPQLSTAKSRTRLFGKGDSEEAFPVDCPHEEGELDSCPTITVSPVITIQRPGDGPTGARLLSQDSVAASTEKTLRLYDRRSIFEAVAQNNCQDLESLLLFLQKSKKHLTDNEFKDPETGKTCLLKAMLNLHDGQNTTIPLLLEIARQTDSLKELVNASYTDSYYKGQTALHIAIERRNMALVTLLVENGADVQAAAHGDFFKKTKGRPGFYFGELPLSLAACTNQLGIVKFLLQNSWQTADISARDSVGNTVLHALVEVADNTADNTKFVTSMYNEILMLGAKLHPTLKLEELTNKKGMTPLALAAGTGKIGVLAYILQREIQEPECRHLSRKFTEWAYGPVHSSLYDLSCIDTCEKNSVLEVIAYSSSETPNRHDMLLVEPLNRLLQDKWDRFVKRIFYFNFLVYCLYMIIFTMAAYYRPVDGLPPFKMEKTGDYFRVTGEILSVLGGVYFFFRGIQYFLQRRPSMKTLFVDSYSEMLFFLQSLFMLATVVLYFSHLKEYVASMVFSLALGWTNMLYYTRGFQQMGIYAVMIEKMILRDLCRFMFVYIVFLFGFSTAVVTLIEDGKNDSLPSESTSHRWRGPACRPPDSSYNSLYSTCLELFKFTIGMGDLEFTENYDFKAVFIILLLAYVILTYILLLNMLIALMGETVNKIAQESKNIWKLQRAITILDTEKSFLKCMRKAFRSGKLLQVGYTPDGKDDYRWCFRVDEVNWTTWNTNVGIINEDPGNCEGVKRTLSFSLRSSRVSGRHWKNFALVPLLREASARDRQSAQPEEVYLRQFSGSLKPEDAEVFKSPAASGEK
# strict inequality: Ki < 40 nM yields true (1), everything else yields false (0)

1) O=C(NCc1cc(C(F)(F)F)nn1-c1cccc(Cl)c1)Nc1ccc(C(O)CO)nc1 (centres unmarked)
false (0)
2) CC(C(=O)NCc1cc(C(F)(F)F)nn1-c1cccc(Cl)c1)c1ccc(N(C)CCO)nc1 (centres unmarked)
true (1)
3) Cc1cccc(-n2nc(C(F)(F)F)cc2CNC(=O)Nc2ccc(CO)nc2)c1
false (0)
4) Cc1cccc(-n2nc(C(F)(F)F)cc2CNC(=O)Nc2ccc(N3CC(O)C3)nc2)c1
true (1)
5) O=C(NCc1cc(C2CC2)nn1-c1cccc(Cl)c1)Nc1ccc(NCCO)nc1
true (1)
